Attribute: pKd
- measurement_target: T1, biotinylated human VWF cysteine knot (CK) domain construct (human, UniProt P04275 2724-2813, biotinylated in vitro (BirA) on the biotinylation tag; one N-glycan)
- T1 construct: Expressed in HEK293 EBNA cells; disulfide-linked homodimer; also called human VWF CK; human VWF CK domain; not shown: in vitro biotinylation tag, HRV-3C site and 3 VWF residues before the CK domain
- protocol_text: SPR, scFv captured via anti-SV5, CK domain injected, pH 5.5, apparent Kd;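 also: scFvs from crude yeast supernatants captured on chip-bound anti-SV5 antibody, Kd computed as koff divided by kon, dimeric CK construct likely makes affinity appear higher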
pKd: −log10 of the molar value.
quantity: pKd

binder	observed
965_Lib4_scFv (scFv, VH-linker-VL; not shown: C-terminal 3xFLAG and SV5 tags) scFv: QVQLQESGPGLVKPSQTLSLTCTVSGASFGDNYWSWIRQPPGKGLEWIGYIDTSGSSDYNPSLKSRVTMSVDTSKNQFSLKVNSVTAADTAVYYCARDALGYYYMDVWGKGTTVTVSSSGGSTITSYNVYYTKLSSSGTEIVMTQSPATLSLSPGERATLSCRASQGISGRLAWYQQKPGQAPRLLIYDASARASGIPARFSGSGSGTDFTLTISSLEPEDFAVYYCQQYGTSPYTFGGGTKVEIK	9.21
Lib4_P2_A5_scFv (scFv, VH-linker-VL; not shown: C-terminal 3xFLAG and SV5 tags) scFv: QVQLQESGPGLVKPSQTLSLTCTVSGSSISSSSDYWSWIRQPPGKGLEWIGYIDISGDADYNPSLKSRVTMSVDTSKNQFSLKVNSVTAADTAVYYCARHLSSGWYGTYYFDYWGQGTLVTVSSSGGSTITSYNVYYTKLSSSGTEIVMTQSPATLSLSPGERATLSCRASQNIHSNLAWYQQKPGQAPRLLIYDASSRATGIPARFSGSGSGTDFTLTISSLEPEDFAVYYCQQGYTKPLTFGGGTKVEIK	9.91
1374_Lib8_scFv (scFv, VH-linker-VL; not shown: C-terminal 3xFLAG and SV5 tags) scFv: EVQLVESGGGLVQPGRSLRLSCAASGVDFSTYAMHWVRQAPGKGLEWVSAISSSGAYTDYADSVEGRFTISRDNAKNSLYLQMNSLRAEDTAVYYCATDRGPFSGYGTQGWFDPWGQGTLVTVSSSGGSTITSYNVYYTKLSSSGTDIQMTQSPSSLSASVGDRVTITCRASQTIRSYLAWYQQKPGKAPKLLIYGASDLQSGVPSRFSGSGSGTDFTLTISSLQPEDVATYYCQQYANFPITFGGGTKVEIK	10.37
